# Tested on: Fusarium verticillioides
# Assay Comment: Antifungal activity against Fusarium moniliforme MTCC 156 after 24 to 48 hrs by agar diffusion method
# Type: functional
# Protocol Conditions: Fusarium verticillioides, MTCC 156
Below is a list of entries, each paired with its recorded MIC value.
// units = µg/mL; emit number, no label

CCCCc1nc(Cl)c(C2CC(c3cc(Cl)cc(Br)c3O)=NN2c2nc(-c3ccc(Cl)cc3)cs2)[nH]1 (stereo not drawn) ... 50
CCCCc1nc(Cl)c(C2CC(c3cc(Cl)c(C)cc3O)=NN2c2nc(-c3ccc(Cl)cc3)cs2)[nH]1 (stereo not drawn) ... 50
CCCCc1nc(Cl)c(C2CC(c3ccccc3O)=NN2c2nc(-c3ccc(Cl)cc3)cs2)[nH]1 (stereo not drawn) ... 25
CCCCc1nc(Cl)c(C2CC(c3cc(Cl)cc(Cl)c3O)=NN2c2nc(-c3ccc(Cl)cc3)cs2)[nH]1 (stereo not drawn) ... 25
CCCCc1nc(Cl)c(C2CC(c3ccc(Cl)cc3)=NN2c2nc(-c3ccc(Cl)cc3)cs2)[nH]1 (stereo not drawn) ... 50

q: What value of MIC has been recorded for this entry: CCCCc1nc(Cl)c(C2CC(c3cc(Br)cc(Br)c3O)=NN2c2nc(-c3ccc(Cl)cc3)cs2)[nH]1 (stereo not drawn)
a: 25

q: And the next one, CCCCc1nc(Cl)c(C2CC(c3cc(C)ccc3O)=NN2c2nc(-c3ccc(Cl)cc3)cs2)[nH]1 (stereo not drawn) ?
a: 50

q: And the next one, CCCCc1nc(Cl)c(C2CC(c3cc(Cl)ccc3O)=NN2c2nc(-c3ccc(Cl)cc3)cs2)[nH]1 (stereo not drawn) ?
a: 25
